test system: NRG-mice bearing LNCaP tumors; experiment: Biodistribution (and PET/SPECT imaging) in NRG-mice bearing LNCaP tumors; type: in vivo; details: 3 h p.i., Avg
*1 amine or outer side, *2 acyl side, *3 side chain or, on linkers, in order; H or OH if unused. Where a SMILES comes first, the peptide text is derived from it. [ ]: non-standard residue; d: D form. The star is where a group is joined. ξ: configuration not given here. ξLys(Nα-CO-ξAad) = O=C(O)CCCC(NC(=O)NC(CCCCN*)C(=O)O)C(=O)O; Butanoyl(4-(4-NO2Ph)) = O=C(CCCc1ccc([N+](=O)[O-])cc1)*; DOTA = O=C(O)CN1CCN(CC(=O)O)CCN(CC(=O)*)CCN(CC(=O)O)CC1; Butanoyl(4-(4-MeO-phenyl)) = COc1ccc(CCCC(=O)*)cc1; ξAla(9-anthryl) = NC(Cc1c2ccccc2cc2ccccc12)C(=O)O; X2 = O=C(NC(CCCCN*)C(=O)O)NC(CC(F)C(=O)O)C(=O)O; X1 = O=C(C1CCC(CN[*:1])CC1)[*:2]; ξK = NCCCCC(N)C(=O)O
reported_metric: Biodistribution: Urine (% ID/g)
Numbers only; they are read as % ID/g.

In the examples that follow, each entry is paired with its recorded Biodistribution: Urine.
{"columns": ["compound", "target", "observed"],
 "data": [
  ["COc1ccc(CCCC(=O)NCC(=O)NC(CCCCNC(=O)CN2CCN(CC(=O)[O-])CCN(CC(=O)[O-])CCN(CC(=O)[O-])CC2)CC(=O)NCC2CCC(C(=O)NC(Cc3c4ccccc4cc4ccccc34)C(=O)NCCCCC(NC(=O)NC(CCCC(=O)O)C(=O)O)C(=O)O)CC2)cc1.[68Ga+3] (stereo not drawn) [^68Ga-CCZ02015]", "NRG-mice bearing LNCaP tumors", 84.38],
  ["COc1ccc(CCCC(=O)NCC(=O)NC(CCCCNC(=O)CN2CCN(CC(=O)[O-])CCN(CC(=O)[O-])CCN(CC(=O)[O-])CC2)CC(=O)NCC2CCC(C(=O)NC(Cc3c4ccccc4cc4ccccc34)C(=O)NCCCCC(NC(=O)NC(CC(F)C(=O)O)C(=O)O)C(=O)O)CC2)cc1.[177Lu+3] (stereo not drawn) [^177Lu-CCZ02019]", "NRG-mice bearing LNCaP tumors", 180.95],
  ["O=C([O-])CN1CCN(CC(=O)[O-])CCN(CC(=O)NCCCCC(NC(=O)CNC(=O)CCCc2ccc([N+](=O)[O-])cc2)C(=O)NCC(=O)NCC2CCC(C(=O)NC(Cc3c4ccccc4cc4ccccc34)C(=O)NCCCCC(NC(=O)NC(CCCC(=O)O)C(=O)O)C(=O)O)CC2)CCN(CC(=O)[O-])CC1.[177Lu+3] (stereo not drawn) [^177Lu-CCZ02017] ({Butanoyl(4-(4-NO2Ph))}-G[ξK](DOTA)G[X1][ξAla(9-anthryl)]-{ξLys(Nα-CO-ξAad)})", "NRG-mice bearing LNCaP tumors", 97.91],
  ["COc1ccc(CCCC(=O)NCC(=O)NC(CCCCNC(=O)CN2CCN(CC(=O)[O-])CCN(CC(=O)[O-])CCN(CC(=O)[O-])CC2)C(=O)NCC(=O)NCC2CCC(C(=O)NC(Cc3c4ccccc4cc4ccccc34)C(=O)NCCCCC(NC(=O)NC(CCCC(=O)O)C(=O)O)C(=O)O)CC2)cc1.[68Ga+3] (stereo not drawn) [^68Ga-CCZ02009] ({Butanoyl(4-(4-MeO-phenyl))}-G[ξK](DOTA)G[X1][ξAla(9-anthryl)]-{ξLys(Nα-CO-ξAad)})", "NRG-mice bearing LNCaP tumors", 56.09],
  ["O=C([O-])CN1CCN(CC(=O)[O-])CCN(CC(=O)NCCCCC(NC(=O)CNC(=O)CCCc2ccc([N+](=O)[O-])cc2)C(=O)NCC(=O)NCC2CCC(C(=O)NC(Cc3c4ccccc4cc4ccccc34)C(=O)NCCCCC(NC(=O)NC(CCCC(=O)O)C(=O)O)C(=O)O)CC2)CCN(CC(=O)[O-])CC1.[225Ac+3] (stereo not drawn) [^225Ac-CCZ02017] ({Butanoyl(4-(4-NO2Ph))}-G[ξK](DOTA)G[X1][ξAla(9-anthryl)]-{ξLys(Nα-CO-ξAad)})", "NRG-mice bearing LNCaP tumors", 142.80]
]}

Lab note: next compound to report on.
So, O=C([O-])CN1CCN(CC(=O)[O-])CCN(CC(=O)NCCCCC(NC(=O)CNC(=O)CCCc2ccc([N+](=O)[O-])cc2)C(=O)NCC(=O)NCC2CCC(C(=O)NC(Cc3c4ccccc4cc4ccccc34)C(=O)NCCCCC(NC(=O)NC(CC(F)C(=O)O)C(=O)O)C(=O)O)CC2)CCN(CC(=O)[O-])CC1.[68Ga+3] (stereo not drawn) [^68Ga-CCZ02025] ({Butanoyl(4-(4-NO2Ph))}-G[ξK](DOTA)G[X1][ξAla(9-anthryl)]-X2) ? Its Biodistribution: Urine was 101.55

###

system: NRG-mice bearing LNCaP tumors; assay: Biodistribution (and PET/SPECT imaging) in NRG-mice bearing LNCaP tumors; format: in vivo; conditions: 3 h p.i., Avg
*1 amine or outer side, *2 acyl side, *3 side chain or, on linkers, in order; H or OH if unused. Where a SMILES comes first, the peptide text is derived from it. [ ]: non-standard residue; d: D form. The star is where a group is joined. ξ: configuration not given here. ξLys(Nα-CO-ξAad) = O=C(O)CCCC(NC(=O)NC(CCCCN*)C(=O)O)C(=O)O; Butanoyl(4-(4-NO2Ph)) = O=C(CCCc1ccc([N+](=O)[O-])cc1)*; DOTA = O=C(O)CN1CCN(CC(=O)O)CCN(CC(=O)*)CCN(CC(=O)O)CC1; ξAla(9-anthryl) = NC(Cc1c2ccccc2cc2ccccc12)C(=O)O; X2 = O=C(NC(CCCCN*)C(=O)O)NC(CC(F)C(=O)O)C(=O)O; X1 = O=C(C1CCC(CN[*:1])CC1)[*:2]; ξK = NCCCCC(N)C(=O)O
reported_metric: Biodistribution: Muscle (% ID/g)
The reply should contain only the number, in % ID/g.

Worked examples follow.
{"columns": ["compound", "observed"],
 "data": [
  ["COc1ccc(CCCC(=O)NCC(=O)NC(CCCCNC(=O)CN2CCN(CC(=O)[O-])CCN(CC(=O)[O-])CCN(CC(=O)[O-])CC2)CC(=O)NCC2CCC(C(=O)NC(Cc3c4ccccc4cc4ccccc34)C(=O)NCCCCC(NC(=O)NC(CCCC(=O)O)C(=O)O)C(=O)O)CC2)cc1.[68Ga+3] (stereo not drawn) [^68Ga-CCZ02015]", 1.13],
  ["O=C([O-])CN1CCN(CC(=O)[O-])CCN(CC(=O)NCCCCC(NC(=O)CNC(=O)CCCc2ccc([N+](=O)[O-])cc2)C(=O)NCC(=O)NCC2CCC(C(=O)NC(Cc3c4ccccc4cc4ccccc34)C(=O)NCCCCC(NC(=O)NC(CC(F)C(=O)O)C(=O)O)C(=O)O)CC2)CCN(CC(=O)[O-])CC1.[68Ga+3] (stereo not drawn) [^68Ga-CCZ02025] ({Butanoyl(4-(4-NO2Ph))}-G[ξK](DOTA)G[X1][ξAla(9-anthryl)]-X2)", 0.95]
]}

For the next question, use this compound.
Per the reported NRG-mice bearing LNCaP tumors data, O=C([O-])CN1CCN(CC(=O)[O-])CCN(CC(=O)NCCCCC(NC(=O)CNC(=O)CCCc2ccc([N+](=O)[O-])cc2)C(=O)NCC(=O)NCC2CCC(C(=O)NC(Cc3c4ccccc4cc4ccccc34)C(=O)NCCCCC(NC(=O)NC(CCCC(=O)O)C(=O)O)C(=O)O)CC2)CCN(CC(=O)[O-])CC1.[225Ac+3] (stereo not drawn) [^225Ac-CCZ02017] ({Butanoyl(4-(4-NO2Ph))}-G[ξK](DOTA)G[X1][ξAla(9-anthryl)]-{ξLys(Nα-CO-ξAad)}) has Biodistribution: Muscle of 0.80

###

Target: PSMA (Homo sapiens)
Construct: endogenous in cells
Sequence (Q04609 whole entry): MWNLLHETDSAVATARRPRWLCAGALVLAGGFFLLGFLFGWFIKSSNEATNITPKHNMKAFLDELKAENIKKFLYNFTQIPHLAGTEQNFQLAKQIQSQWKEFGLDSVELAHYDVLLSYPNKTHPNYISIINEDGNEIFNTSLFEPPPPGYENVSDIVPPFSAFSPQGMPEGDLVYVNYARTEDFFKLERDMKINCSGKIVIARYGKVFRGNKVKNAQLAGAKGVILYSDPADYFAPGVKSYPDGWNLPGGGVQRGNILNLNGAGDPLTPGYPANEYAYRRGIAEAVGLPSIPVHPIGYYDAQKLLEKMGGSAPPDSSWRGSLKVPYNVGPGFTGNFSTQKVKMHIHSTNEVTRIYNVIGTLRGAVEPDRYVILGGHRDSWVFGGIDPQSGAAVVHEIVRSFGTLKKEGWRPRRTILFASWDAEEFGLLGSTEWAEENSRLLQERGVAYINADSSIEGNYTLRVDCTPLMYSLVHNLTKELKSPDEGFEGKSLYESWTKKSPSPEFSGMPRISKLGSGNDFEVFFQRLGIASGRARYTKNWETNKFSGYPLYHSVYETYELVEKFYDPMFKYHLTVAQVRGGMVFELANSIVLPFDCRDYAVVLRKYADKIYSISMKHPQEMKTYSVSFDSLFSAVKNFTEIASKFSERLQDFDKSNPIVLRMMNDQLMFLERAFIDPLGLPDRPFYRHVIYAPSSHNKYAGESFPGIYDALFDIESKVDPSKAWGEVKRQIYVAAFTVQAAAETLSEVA
Test: In vitro PSMA competitive binding assay, LNCaP cells, [18F]DCFPyL radioligand
Details: [18F]DCFPyL 0.1 nM, read-out: PSMA binding affinity (Ki)
Procedure: Inhibition constants (Ki) to PSMA were measured by in vitro competition binding assays using [^18F]DCFPyL as the radioligand. LNCaP cells which were plated onto a 24-well poly-D-lysine coated plate for 48 h (400,000/well). Growth medium was removed and replaced with HEPES buffered saline (50 mM HEPES, pH 7.5, 0.9% sodium chloride). […] Radioactivity was measured by gamma counting and Ki values calculated using the ‘one site—fit Ki’ built-in model in Prism 8 (GraphPad).
*1 amine or outer side, *2 acyl side, *3 side chain or, on linkers, in order; H or OH if unused. Where a SMILES comes first, the peptide text is derived from it. [ ]: non-standard residue; d: D form. The star is where a group is joined. AadUreaLys(Nε) = O=C(O)CCC[C@H](NC(=O)N[C@@H](CCCCN*)C(=O)O)C(=O)O; X4 = O=C(N[C@@H](CCCCN*)C(=O)O)N[C@@H](C[C@@H](F)C(=O)O)C(=O)O; Butanoyl(4-(4-NO2Ph)) = O=C(CCCc1ccc([N+](=O)[O-])cc1)*; DOTA = O=C(O)CN1CCN(CC(=O)O)CCN(CC(=O)*)CCN(CC(=O)O)CC1; Ala(9-anthryl) = N[C@@H](Cc1c2ccccc2cc2ccccc12)C(=O)O; Butanoyl(4-(4-MeO-phenyl)) = COc1ccc(CCCC(=O)*)cc1; X1 = O=C(C1CCC(CN[*:1])CC1)[*:2]; X3 = O=C(C1CCC(N[*:1])CC1)[*:2]
Rule for this label: fulfilled means Ki is less than 2 nM; not fulfilled means Ki is at least 2 nM.

See these solved cases before continuing.
{"columns": ["compound", "target", "discrete_label"],
 "data": [
  ["O=C(O)CCC[C@H](NC(=O)N[C@@H](CCCCNC(=O)[C@H](Cc1c2ccccc2cc2ccccc12)NC(=O)C1CCC(NC(=O)CN2CCN(CC(=O)O)CCN(CC(=O)O)CCN(CC(=O)O)CC2)CC1)C(=O)O)C(=O)O (some centres unmarked) [CCZ02012]", "PSMA (Homo sapiens)", "fulfilled"],
  ["O=C(O)CCC[C@H](NC(=O)N[C@@H](CCCCNC(=O)[C@H](Cc1c2ccccc2cc2ccccc12)NC(=O)C1CCC(NC(=O)CNC(=O)[C@H](CCCCNC(=O)CN2CCN(CC(=O)O)CCN(CC(=O)O)CCN(CC(=O)O)CC2)NC(=O)CNC(=O)CCCc2ccc([N+](=O)[O-])cc2)CC1)C(=O)O)C(=O)O (some centres unmarked) [CCZ02021] ({Butanoyl(4-(4-NO2Ph))}-GK(DOTA)G[X3][Ala(9-anthryl)]-{AadUreaLys(Nε)})", "PSMA (Homo sapiens)", "not fulfilled"],
  ["COc1ccc(CCCC(=O)NCC(=O)N[C@@H](CCCCNC(=O)CN2CCN(CC(=O)O)CCN(CC(=O)O)CCN(CC(=O)O)CC2)C(=O)NCC2CCC(C(=O)N[C@@H](Cc3c4ccccc4cc4ccccc34)C(=O)NCCCC[C@H](NC(=O)N[C@@H](CCCC(=O)O)C(=O)O)C(=O)O)CC2)cc1 (some centres unmarked) [HTK03170, reference compound]", "PSMA (Homo sapiens)", "fulfilled"]
]}

Please check: Ki for O=C(O)CCC[C@H](NC(=O)N[C@@H](CCCCNC(=O)[C@H](Cc1c2ccccc2cc2ccccc12)NC(=O)C1CCC(NC(=O)CNC(=O)C[C@H](CCCCNC(=O)CN2CCN(CC(=O)O)CCN(CC(=O)O)CCN(CC(=O)O)CC2)NC(=O)CNC(=O)CCCc2ccc([N+](=O)[O-])cc2)CC1)C(=O)O)C(=O)O (some centres unmarked) [CCZ02022] , strictly under 2 nM or not? not fulfilled

Take the compound O=C(O)CCC[C@H](NC(=O)N[C@@H](CCCCNC(=O)[C@H](Cc1c2ccccc2cc2ccccc12)NC(=O)C1CCC(NC(=O)CN2CCN(CC(=O)O)CCN(CC(=O)O)CCN(CC(=O)O)CC2)CC1)C(=O)O)C(=O)O (some centres unmarked) [CCZ02013] and say whether its Ki is less than 2 nM. fulfilled

Here's an entry: COc1ccc(CCCC(=O)NCC(=O)N[C@@H](CCCCNC(=O)CN2CCN(CC(=O)O)CCN(CC(=O)O)CCN(CC(=O)O)CC2)C(=O)NCC(=O)NCC2CCC(C(=O)N[C@@H](Cc3c4ccccc4cc4ccccc34)C(=O)NCCCC[C@H](NC(=O)N[C@@H](C[C@@H](F)C(=O)O)C(=O)O)C(=O)O)CC2)cc1 (some centres unmarked) [CCZ02008] ({Butanoyl(4-(4-MeO-phenyl))}-GK(DOTA)G[X1][Ala(9-anthryl)]-X4) . Is its Ki below 2 nM? fulfilled

Quick check: does O=C(O)CCC[C@H](NC(=O)N[C@@H](CCCCNC(=O)[C@H](Cc1c2ccccc2cc2ccccc12)NC(=O)C1CCC(CNC(=O)CNC(=O)[C@H](CCCCNC(=O)CN2CCOCCN(CC(=O)O)CCN(CC(=O)O)CCOCCN(CC(=O)O)CC2)NC(=O)CNC(=O)CCCc2ccc([N+](=O)[O-])cc2)CC1)C(=O)O)C(=O)O (some centres unmarked) [CCZ02034] have Ki under 2 nM? not fulfilled

Lab log: compare recorded Ki with 2 nM; is it strictly lower for COc1ccc(CCCC(=O)NCC(=O)N[C@@H](CCCCNC(=O)CN2CCN(CC(=O)O)CCN(CC(=O)O)CCN(CC(=O)O)CC2)C(=O)NCC(=O)NCC(=O)NCC(=O)NCC(=O)NCC2CCC(C(=O)N[C@@H](Cc3c4ccccc4cc4ccccc34)C(=O)NCCCC[C@H](NC(=O)N[C@@H](CCCC(=O)O)C(=O)O)C(=O)O)CC2)cc1 (some centres unmarked) [CCZ02059] ({Butanoyl(4-(4-MeO-phenyl))}-GK(DOTA)GGGG[X1][Ala(9-anthryl)]-{AadUreaLys(Nε)}) ? not fulfilled
